molecular target: UniProt:P11387; test: Effect on human DNA topoisomerase 1-mediated relaxation of supercoiled pUC19 DNA at 1 to 20 uM after 2 hrs using ethidium bromide staining by agarose gel electrophoresis
Sequence (P11387 whole entry): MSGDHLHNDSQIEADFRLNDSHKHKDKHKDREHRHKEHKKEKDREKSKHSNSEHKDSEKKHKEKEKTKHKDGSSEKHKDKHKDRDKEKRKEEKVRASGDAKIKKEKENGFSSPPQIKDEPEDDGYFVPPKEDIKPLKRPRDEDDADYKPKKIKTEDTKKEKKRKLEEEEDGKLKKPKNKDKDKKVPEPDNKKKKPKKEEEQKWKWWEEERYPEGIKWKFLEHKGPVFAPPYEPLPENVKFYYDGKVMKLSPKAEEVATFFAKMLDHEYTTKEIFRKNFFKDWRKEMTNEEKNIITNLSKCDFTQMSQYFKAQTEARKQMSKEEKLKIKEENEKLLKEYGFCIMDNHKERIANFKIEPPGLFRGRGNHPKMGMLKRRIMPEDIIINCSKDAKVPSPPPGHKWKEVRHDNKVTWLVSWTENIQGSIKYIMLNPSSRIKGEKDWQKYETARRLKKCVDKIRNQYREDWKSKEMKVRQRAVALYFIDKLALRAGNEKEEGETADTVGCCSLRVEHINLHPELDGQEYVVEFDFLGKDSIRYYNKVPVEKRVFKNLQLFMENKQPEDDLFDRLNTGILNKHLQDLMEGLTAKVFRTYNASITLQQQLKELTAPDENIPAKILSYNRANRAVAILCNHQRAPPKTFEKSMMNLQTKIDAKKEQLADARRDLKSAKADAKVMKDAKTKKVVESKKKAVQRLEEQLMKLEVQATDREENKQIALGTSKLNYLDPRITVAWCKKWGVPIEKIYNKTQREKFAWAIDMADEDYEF
The source made the active and inactive calls. The calls are words filed in the database; no cut-off is given here.
measurementName: Activity

In the examples that follow, each entry is paired with its recorded Activity.
molecule | testedOn | measurementName | recordedMeasurement
Cl.NC(Cc1cnc[nH]1)C(=O)NCCCn1c2c(c3ccccc3c1=O)C(=O)c1ccccc1-2 (racemic) | UniProt:P11387 | Activity | Active
NCC(=O)OCCCn1c2c(c3ccccc3c1=O)C(=O)c1ccccc1-2 | UniProt:P11387 | Activity | Active
Cl.Cl.NCCCC[C@H](N)C(=O)NCCCn1c2c(c3ccccc3c1=O)C(=O)c1ccccc1-2 | UniProt:P11387 | Activity | Active
Cl.NCCNCCn1c2c(c3ccccc3c1=O)C(=O)c1ccccc1-2 | UniProt:P11387 | Activity | Active

Q: So what's the measured Activity for this one? Cl.NCC(=O)NCCCn1c2c(c3ccccc3c1=O)C(=O)c1ccccc1-2
Ans: Active

Q: So what's the measured Activity for this one? NCCCC[C@@H](N)C(=O)NCCn1c2c(c3ccccc3c1=O)C(=O)c1ccccc1-2
Ans: Active

----------
test system: Calf thymus DNA; test: Displacement of DNA-bound ethidium bromide from calf thymus DNA by fluorescence assay; assay type: nucleic-acid assay; settings: Bos taurus
measurementName: Kapp (×10⁶ /M)

I. Cl.NC(Cc1cnc[nH]1)C(=O)OCCn1c2c(c3ccccc3c1=O)C(=O)c1ccccc1-2 (racemic)
II. Cl.NCC(=O)NCCn1c2c(c3ccccc3c1=O)C(=O)c1ccccc1-2
Q: Hi there! Just curious which has the higher Kapp between I and II . Answer with the label corresponding to your selection.
Ans: II

----------
system: Calf thymus DNA; assay: Displacement of DNA-bound ethidium bromide from calf thymus DNA by fluorescence assay; format: nucleic-acid assay; conditions: Bos taurus
measurementName: Kapp (×10⁶ /M)

In the examples that follow, each entry is paired with its recorded Kapp.
molecule | Kapp (×10⁶ /M)
Cl.N[C@H](Cc1cnc[nH]1)C(=O)OCCCn1c2c(c3ccccc3c1=O)C(=O)c1ccccc1-2 | 0.72
NCCCC[C@@H](N)C(=O)NCCn1c2c(c3ccccc3c1=O)C(=O)c1ccccc1-2 | 5.98
Cl.Cl.NCCCC[C@H](N)C(=O)OCCn1c2c(c3ccccc3c1=O)C(=O)c1ccccc1-2 | 0.89

a. NCCCC[C@@H](N)C(=O)NCCCn1c2c(c3ccccc3c1=O)C(=O)c1ccccc1-2
b. Cl.N[C@@H](Cc1cnc[nH]1)C(=O)NCCn1c2c(c3ccccc3c1=O)C(=O)c1ccccc1-2
Q: Hi there! Just curious which has the higher Kapp between a and b . Answer with the label corresponding to your selection.
Ans: a

----------
test system: Calf thymus DNA; test: Binding affinity to calf thymus DNA assessed as change in melting temperature at drug/DNA ratio 0.25; type: nucleic-acid assay; details: Bos taurus
measurementName: ΔTm (°C)

molecule | ΔTm, °C
Cl.Cl.NCCCCC(N)C(=O)NCCCn1c2c(c3ccccc3c1=O)C(=O)c1ccccc1-2 (racemic) | 20.9

P. Cl.N[C@H](Cc1cnc[nH]1)C(=O)OCCn1c2c(c3ccccc3c1=O)C(=O)c1ccccc1-2
Q. Cl.NC(Cc1cnc[nH]1)C(=O)OCCCn1c2c(c3ccccc3c1=O)C(=O)c1ccccc1-2 (racemic)
R. Cl.Cl.NCCCC[C@H](N)C(=O)OCCn1c2c(c3ccccc3c1=O)C(=O)c1ccccc1-2
S. Cl.NCCNCCCn1c2c(c3ccccc3c1=O)C(=O)c1ccccc1-2
Q: Please list these molecules in decreasing order of ΔTm. List the labels in the requested order.
Ans: S, R, Q, P
